# TEST TARGET: human BRD4 bromodomain II (Homo sapiens)
# Construct: human BRD4 bromodomain II [based on Genbank NM_058243, residues 349-460]; host or cells: E. coli
# ASSAY COMMENT: Bromodomain binding assay (AlphaScreen), BRD4 BDII
# DETAILS: AlphaScreen assay, Table C2; read-out: BRD4 BDII IC50
pIC50: −log10 of the molar value.

[
  {
    "COMPOUND": "CC(C)N1CCC12CCN(c1cc(-c3cc(F)cc(-c4ccc(-n5ccn(C)c5=O)c(Cl)c4)c3O)ccn1)C2 (stereo not shown)",
    "pIC50": "9.00 to 11.00"
  },
  {
    "COMPOUND": "Cn1ccn(-c2ccc(-c3cc(F)cc(-c4cc(N5CCN(C(C)(C)C)CC5)n(C)c(=O)c4)c3O)cc2Cl)c1=O",
    "pIC50": "9.00 to 11.00"
  },
  {
    "COMPOUND": "CC(=O)Nc1ccc(-c2cc(F)cc(-c3cnn(C4CCN(C)CC4)c3)c2O)cc1F",
    "pIC50": "< 7.00"
  },
  {
    "COMPOUND": "CC(=O)Nc1ccc(-c2cccc(-c3ccnc(C#CCCN)c3)c2O)cc1F",
    "pIC50": "7.00 to 8.00"
  }
]
